Target: Cyclin E1 (Homo sapiens, UniProt P24864+Q96SW2)
Sequence (P24864 whole entry): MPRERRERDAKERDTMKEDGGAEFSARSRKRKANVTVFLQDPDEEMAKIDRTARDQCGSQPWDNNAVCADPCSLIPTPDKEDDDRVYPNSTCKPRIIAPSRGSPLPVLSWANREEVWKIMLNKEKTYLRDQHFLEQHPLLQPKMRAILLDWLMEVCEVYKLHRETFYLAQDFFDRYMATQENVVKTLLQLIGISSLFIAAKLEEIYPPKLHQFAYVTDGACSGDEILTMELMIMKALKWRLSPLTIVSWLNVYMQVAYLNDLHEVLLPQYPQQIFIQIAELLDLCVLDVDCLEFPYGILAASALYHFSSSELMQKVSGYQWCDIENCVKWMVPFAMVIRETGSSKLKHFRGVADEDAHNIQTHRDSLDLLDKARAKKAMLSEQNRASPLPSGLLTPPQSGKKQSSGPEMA
Sequence (Q96SW2 whole entry): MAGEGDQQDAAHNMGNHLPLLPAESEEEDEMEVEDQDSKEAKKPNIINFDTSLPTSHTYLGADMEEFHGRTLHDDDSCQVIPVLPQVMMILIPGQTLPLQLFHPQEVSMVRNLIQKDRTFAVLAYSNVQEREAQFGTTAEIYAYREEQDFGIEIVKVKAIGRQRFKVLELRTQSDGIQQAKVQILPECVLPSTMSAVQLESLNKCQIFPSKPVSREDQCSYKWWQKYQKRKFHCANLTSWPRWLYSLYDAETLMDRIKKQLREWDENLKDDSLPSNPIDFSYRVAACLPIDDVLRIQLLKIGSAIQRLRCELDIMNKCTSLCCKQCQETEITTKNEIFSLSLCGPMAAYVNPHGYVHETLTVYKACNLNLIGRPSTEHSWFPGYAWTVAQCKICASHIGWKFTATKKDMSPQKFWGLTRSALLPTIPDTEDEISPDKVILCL
Sequence (Q16531 whole entry partner): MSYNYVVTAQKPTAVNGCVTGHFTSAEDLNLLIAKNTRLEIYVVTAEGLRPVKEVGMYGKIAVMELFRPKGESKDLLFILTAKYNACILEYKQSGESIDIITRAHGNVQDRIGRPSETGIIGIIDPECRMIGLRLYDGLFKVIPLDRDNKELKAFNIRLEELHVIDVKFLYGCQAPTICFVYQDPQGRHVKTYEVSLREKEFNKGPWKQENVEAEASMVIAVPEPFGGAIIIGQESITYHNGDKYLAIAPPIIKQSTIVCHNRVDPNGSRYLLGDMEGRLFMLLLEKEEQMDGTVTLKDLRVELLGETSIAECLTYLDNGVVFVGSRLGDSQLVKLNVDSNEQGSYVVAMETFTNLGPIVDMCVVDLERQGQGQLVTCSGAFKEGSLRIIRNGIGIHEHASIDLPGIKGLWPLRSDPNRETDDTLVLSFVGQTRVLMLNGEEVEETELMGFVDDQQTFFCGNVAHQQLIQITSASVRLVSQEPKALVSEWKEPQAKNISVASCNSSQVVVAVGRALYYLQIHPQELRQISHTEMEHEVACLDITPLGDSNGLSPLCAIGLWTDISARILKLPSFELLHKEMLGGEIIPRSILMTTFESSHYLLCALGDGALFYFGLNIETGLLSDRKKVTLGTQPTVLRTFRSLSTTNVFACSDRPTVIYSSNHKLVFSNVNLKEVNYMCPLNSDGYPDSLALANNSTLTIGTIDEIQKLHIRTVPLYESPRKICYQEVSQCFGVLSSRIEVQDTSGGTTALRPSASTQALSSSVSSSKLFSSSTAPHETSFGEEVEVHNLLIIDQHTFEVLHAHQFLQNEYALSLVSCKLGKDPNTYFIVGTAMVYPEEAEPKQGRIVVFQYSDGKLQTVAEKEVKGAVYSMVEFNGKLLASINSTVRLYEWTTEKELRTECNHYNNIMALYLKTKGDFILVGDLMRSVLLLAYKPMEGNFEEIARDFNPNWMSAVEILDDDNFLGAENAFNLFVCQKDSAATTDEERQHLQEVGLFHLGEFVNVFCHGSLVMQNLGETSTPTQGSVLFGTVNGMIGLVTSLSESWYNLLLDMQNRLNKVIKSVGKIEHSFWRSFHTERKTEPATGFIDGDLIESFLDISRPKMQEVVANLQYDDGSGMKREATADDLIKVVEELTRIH
Test: Cyclin E1 Cellular Degradation Assay (MSD)
Type: cell-based
Design: endogenous in cells; host or cells: OVCAR3
Conditions: selectivity for degradation of Cyclin E1 over GSPT1
quantity: Ratio of GSPT1 DC50/Cyclin E1 DC50

1) [2H]C([2H])([2H])c1ccccc1Oc1ccc(NC(=O)OCc2ccc3c(c2OC)C(=O)N(C2CCC(=O)NC2=O)C3)cc1 (stereo not drawn)    >82

Asked: Please list Ratio of GSPT1 DC50/Cyclin E1 DC50 recorded for the molecule O=C1CCC(N2Cc3ccc(COC(=O)Nc4ccc(Oc5ccc(F)c(F)c5)cc4)c(OC4COC4)c3C2=O)C(=O)N1 (stereo not drawn)
Given back: >63

Asked: Please list Ratio of GSPT1 DC50/Cyclin E1 DC50 recorded for the molecule CC(C)Oc1c(COC(=O)Nc2ccc(Oc3ccc(F)c(F)c3)cc2)ccc2c1C(=O)N([C@H]1CCC(=O)NC1=O)C2 (single isomer, unassigned)
Given back: >53

Asked: Please list Ratio of GSPT1 DC50/Cyclin E1 DC50 recorded for the molecule COc1c(COC(=O)Nc2ccc(Oc3ccc(F)cc3C)cc2)ccc2c1C(=O)N(C1CCC(=O)NC1=O)C2 (stereo not drawn)
Given back: >152

Asked: Please list Ratio of GSPT1 DC50/Cyclin E1 DC50 recorded for the molecule O=C1CCC(N2Cc3ccc(COC(=O)Nc4ccc(Oc5ccc(F)c(F)c5)cc4)c(Oc4cccnc4)c3C2=O)C(=O)N1 (stereo not drawn)
Given back: >177

Asked: Please list Ratio of GSPT1 DC50/Cyclin E1 DC50 recorded for the molecule O=C1CCC(N2Cc3ccc(COC(=O)Nc4ccc(Oc5ccc(F)c(F)c5)cc4)c(O[C@@H]4CCOC4)c3C2=O)C(=O)N1 (stereo partly drawn)
Given back: >166
